assay: RAM signaling pathway blockade in yeast – S. cerevisiae, Pdr1DBD-CYC8 efflux-inhibited sensitized strain, primary screen (AID 1298);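 further: 0% = DMSO untreated cells without growth and 100% = 10 µM 1-NA-PP1 full growth; higher means more yeast growth rescued from 5-FOA killing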; conditions: S. cerevisiae cbk1-as DSE1-URA3 strain, 5-FOA growth OD615, 2 d; at 50 µM; stronger effect = higher value
This listing pairs molecules with measured RAM network inhibition.
observed property: RAM network inhibition (%)

* O=C(Cn1c(=O)sc2ccccc21)Nc1ccccc1C(=O)O | 2.02
* CC1CCCCN1CCNC(=O)c1cnn2ccccc12 (stereo unspecified) | 0.01
* COc1ccc(Nc2ncnc3c2cnn3Cc2ccccc2)cc1 | 3.74
* COC(=O)C1=C(C)Nc2ccc(C)cc2S1 | 3.11
* COc1cccc(C(=O)Nc2nnc(-c3ccc(Cl)cc3)o2)c1 | -1.16
* Cc1ccc(C(=O)COC(=O)c2ccc(Br)o2)cc1C | 1.29
* CCC(=O)c1cc2c(cc1NC(=O)c1cccs1)OCCO2 | 9.21
* C=CCSc1nnc2nc3c(nn12)c1cc(C)ccc1n3CC=C | 3.23
* O=C(Cn1nc(Cc2cccnc2)c2ccccc2c1=O)N1CCN(C(=O)c2ccco2)CC1 | 2.7
* CCN1CCN(CCNC(=O)C2CCCN(Cc3nc(-c4cccc(Cl)c4)oc3C)C2)CC1 (stereo unspecified) | 0.71
* CCn1c2ccccc2c2cc(NC(=O)c3ccco3)ccc21 | 0.96
* Cc1cccc(NC(=O)Cn2cnc3c(cnn3-c3ccc(F)cc3)c2=O)c1C | 2.47
* C=CCNC(=O)c1ccc(C)cc1Cl | 1.37
* Cc1cc(/C=N/n2cnnc2)c(C)n1-c1ccc(OCc2ccccc2F)cc1 | 11.1
* Cc1nc2c3c4c(sc3n3c(SCC(=O)NCc5ccco5)nnc3n2n1)COC(C)(C)C4 | 5.05
* COc1ccc(Nc2ccc3c(c2)=NC2(CCCCC2)[N+]=3[O-])cc1 | 6.69
* CCCCOc1ccccc1C1C(C(=O)OC)=C(C)N(C)C(C)=C1C(=O)OC | 8.12
* CN(c1ccccc1)S(=O)(=O)c1ccc(C(=O)Nc2nccs2)cc1 | 4.85
* CC(Oc1ccc(Cl)cc1)C(=O)Nc1nccs1 (stereo unspecified) | 2.7
* COc1ccc(C(=O)/C=C/N2CCCCC2)cc1OC | -1.38
* COc1cccc(-c2cc(C(F)(F)F)nc(N3CCOCC3)n2)c1 | 6.83

----------
Quick list: viability per entry.
experiment: reversal of MRP1-mediated doxorubicin resistance, pilot screen, H69AR cells, doxorubicin co-treatment (AID 601); details: H69AR cells, CellTiter-Glo, 72 h; compound alone cytotoxicity; at 10 µM
observed property: viability (%)

- Cn1c(Cl)nc2ccccc21: 94.8
- CC1NC(=O)NC1CCCCCC(=O)NCCc1ccccc1 (centres undefined): 93.3
- Cn1c(SCc2cccc3ccccc23)nnc1-c1ccco1: 92.4
- CCOC(=O)c1c(N)sc(C(=O)N2CCOCC2)c1C: 98.9
- O=C(C1CCN(c2nnnn2-c2ccccc2)CC1)N1CCN(c2ccccc2)CC1: 79
- C[C@H](NC(=O)OC(C)(C)C)C(=O)NCC1CCC(C(=O)O)CC1 (some centres undefined): 108
- COc1ccccc1N1CCN(C(=O)CCNS(=O)(=O)c2ccc3c(c2)CCC(=O)N3)CC1: 89.8
- Cc1ccc(NC(=O)C2CCCN(S(=O)(=O)c3cnc[nH]3)C2)c(Br)c1 (centres undefined): 101
- COC(=O)c1ccccc1NC(=O)Cn1ccnc1: 97.7
- CCS(=O)(=O)N1CCC(C(=O)NC2CCCCCCC2)CC1: 97.5
- Cc1nnc(N2C(=O)c3oc4ccccc4c(=O)c3C2c2ccco2)s1 (centres undefined): 95.2
- CCOc1ccc(OCC)c(NC(=O)CCCN2C(=O)c3cccnc3C2=O)c1: 85.8
- O=C(NCc1ccco1)C1CCN(S(=O)(=O)N2CCC3(CC2)OCCO3)CC1: 100
- CCCC(=O)Nc1nnc(CC(=O)OCC)s1: 88.1
- Cc1nnc2n(-c3ccccc3)c(=O)c3c4c(sc3n12)CCCC4: 85.6
- Cc1sc2ncnc(OCC(=O)N3CCN(S(=O)(=O)c4ccccc4)CC3)c2c1C: 92.7
- CCOC(=O)c1c(C)oc2ccc(OCC(N)=O)cc12: 97.1
- COCCNc1nc(C(C)(C)C)nc2c1nnn2Cc1ccccc1Cl: 96.1
- O=C(NCC1CCCO1)c1ccccc1-c1nc(-c2ccc(Cl)cc2)no1 (centres undefined): 95.1
- CCOC(=O)c1ccc(N2C(=O)CC(N3CCN(C/C=C/c4ccccc4)CC3)C2=O)cc1 (centres undefined): 84.3
- CCOC(=O)c1ccccc1NC(=O)c1cc2sccc2n1C: 81
- CSc1nnc(-c2nnc(SC)n2-c2ccccc2)n1-c1ccccc1: 98.3
- c1ccc(CNc2ncnc3ccccc23)cc1: 83.8
- Cc1nn(C)c(C)c1S(=O)(=O)N1CCCC(C(=O)N2CCN(c3ccc(Cl)cc3)CC2)C1 (centres undefined): 88.3
- C#CC(CO)N(CCN(Cc1ccccc1)C(C#C)CO)Cc1ccccc1 (centres undefined): 90.3
- C=CCn1c(SCc2ccc(C#N)cc2)nnc1-c1cccc(Cl)c1: 80.2
- O=C1CC(N2CCOCC2)C(=O)N1c1ccc2c(c1)OCO2 (centres undefined): 104
- O=C(NCc1ccco1)C(c1ccco1)N(C(=O)Cn1nnc2ccccc21)c1ccc2c(c1)CCC2 (centres undefined): 99.8
- COC(=O)C(C)Sc1nc2c(c(=O)n(C)c(=O)n2C)n1Cc1cccc(C)c1 (centres undefined): 91.5

----------
assay: growth inhibitors of H69AR lung tumor, primary screen, human, duplicate replicates (AID 580); details: H69AR lung tumor cells viability, ATP luminescence, 72 h; at 10 µM; stronger effect = lower value;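 further: 100% = mean luminescence of untreated wells and 0% = no signal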
observed property: viability (%)

- CN(C)S(=O)(=O)c1ccc(/C(O)=C2/C(=O)C(=O)N(CCN3CCCCC3)C2c2cccnc2)cc1 (stereo unspecified): 87.3
- COCCn1nnnc1C(c1cccs1)N1CCN(c2cc(C)ccc2C)CC1 (stereo unspecified): 92.5
- Cc1ccc(CSC2=NCCN2C(=O)c2ccco2)cc1: 84.3
- O=C(Cn1ncc2c(=O)oc3ccccc3c21)NCC1CCCO1 (stereo unspecified): 94.8
- O=S(=O)(NCCCCCNS(=O)(=O)c1ccccc1)c1ccccc1: 93.2
- Cc1ccc(Cn2c(SCCN3CCCCC3)nc3c2c(=O)[nH]c(=O)n3C)cc1: 81.7

----------
test: growth suppression of beta-catenin knockout HCT116, pilot screen, human colon tumor cells (AID 823); conditions: CellTiter-Glo, 60 h, at 10 µM, stronger effect = lower value;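 further: 0% = wells killed by 20 µM Hyamine and 100% = untreated DMSO cell wells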
Results filed as inconclusive are left out.
In plain terms, low viability, meaning strictly below 90%, gives true (1), and everything else gives false (0).

- COc1ccc(-c2noc(CN3CCN(c4ccccc4)CC3)n2)cc1: false (0)
- COc1ccc(Nc2cc(C)nc3nc(C)nn23)cc1Cl: false (0)
- CC1(C)CC(=O)c2sc(NC(=O)C3CC3)nc2C1: false (0)
- Cn1c(=O)oc2cc(S(=O)(=O)Nc3cccc(F)c3)ccc21: false (0)
- CCc1ccc(C2CC(c3ccccc3)Nc3nc(N)nn32)cc1 (stereo not drawn): false (0)
- CC1=C(C(=O)OC(C)C)C(c2c(O)ccc3ccccc23)NC(=O)N1 (stereo not drawn): false (0)
- Cc1cc(C)nc(/N=c2/ssnc2Cl)c1: true (1)
- CCN1CCN(CCNC(=O)c2ccc(CS(=O)(=O)c3c(Cl)cccc3Cl)o2)CC1: false (0)
- CCc1cccc(C)c1NC(=O)C1CCCO1 (stereo not drawn): true (1)

----------
# reported viability; entries follow
test: reversal of MRP1-mediated doxorubicin resistance, pilot screen, H69AR cells, doxorubicin co-treatment (AID 601); conditions: H69AR cells + 2 uM doxorubicin, CellTiter-Glo, 72 h; measured here: viability with 2 uM doxorubicin; at 10 µM; stronger effect = lower value
observed property: viability (%)

- CC(=O)c1ccc(NS(=O)(=O)c2ccccc2)cc1: 91.6
- Cc1cccc2cc(CN(CCN3CCCC3)C(=O)NC3CCCCC3)c(=O)[nH]c12: 92
- O=C(CN1C(=O)CCSc2ccccc21)Nc1ccccc1: 88.2
- CCC1CCCCN1C(=O)Cn1c(C(=O)OC)cc2sc(Cl)cc21 (centres undefined): 88.4

----------
experiment: reversal of MRP1-mediated doxorubicin resistance, pilot screen, H69AR cells, doxorubicin co-treatment (AID 601); settings: H69AR cells, CellTiter-Glo, 72 h; compound alone cytotoxicity; at 10 µM
observed property: viability

• COc1ccccc1NC(=O)C1CC(=O)N(c2ccc(F)cc2)C1 (stereo not given) = 97.3%
• CCc1ccccc1OCCCCCNCCO = 81.8%
• COc1cc(OC)cc(-c2nc3cc(C)ccc3o2)c1 = 73%
• CCC1(c2ccccc2)C(=O)NCNC1=O = 102%
• O=C(COc1nnc2ccccn12)N1CCN(S(=O)(=O)c2ccccc2)CC1 = 97.2%
• CC1CCc2cc(F)cc3c(=O)c(C(=O)O)cn1c23 (stereo not given) = 104%
• COc1ccc(OC)c(NC(=O)CSc2ncccc2C(=O)O)c1 = 104%
• COC(=O)Cc1csc(N)n1 = 93%
• O=C1CN(C(=O)CN2CCCC2)C(c2ccccc2)c2cc(Br)ccc2N1 (stereo not given) = 102%
• CCOC(=O)c1nnn(-c2nonc2N)c1CN1CCc2ccccc2C1 = 91.7%
• COc1cc2nc(N3CCN(C(=O)C4CCCO4)CC3)nc(N)c2cc1OC (stereo not given) = 91.6%
• CCOCCCNS(=O)(=O)c1ccc2c(c1)oc(=O)n2CC(=O)OCC = 94.3%
• CS(=O)(=O)C1=C(O)C(=O)N(c2ccccc2)C1c1ccccc1 (stereo not given) = 105%
• NC(=O)c1ccccc1NC(=O)CN1CCOCC1 = 88.1%
• O=C(NCc1ccccc1)C1CCCN1S(=O)(=O)c1cccc2cccnc12 (stereo not given) = 110%
• CCn1c(SCC(=O)NCc2ccco2)nc2c(c1=O)SC(C)C2 (stereo not given) = 91.3%
• COc1ccc(NS(=O)(=O)c2c(C)[nH]c(=O)[nH]c2=O)c(OC)c1 = 90.8%
• O=C(O)c1cc(-c2ccccc2Cl)n[nH]1 = 81%
• N#Cc1c(NC(NC(=O)c2ccco2)C(=O)c2ccccc2)sc2c1CCCC2 (stereo not given) = 86.4%
• COc1cc2c(cc1OC)-c1cc(Nc3ccc4c(c3)OCCO4)nc(=O)n1CC2 = 71.2%

From: PubChem BioAssay
